Data provenance: patent US20240034800A1

Molecular target: T1, human HVEM-Fc protein (human, UniProt Q92956 39-202, limits assumed)
T1 construct: not shown: Fc
T1 sequence (looked up): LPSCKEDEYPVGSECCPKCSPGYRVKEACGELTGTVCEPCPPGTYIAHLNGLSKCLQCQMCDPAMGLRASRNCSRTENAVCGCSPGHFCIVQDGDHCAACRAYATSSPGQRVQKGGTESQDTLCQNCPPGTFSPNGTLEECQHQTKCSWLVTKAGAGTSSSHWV
Test: ELISA, coated human HVEM-hFc 0.2 ug/ml, anti-human IgG4-HRP, SigmaPlot fit
Can you tell me binding affinity (ELISA fit) for the items I'm about to list?
Quick note: give the figure in pM, leave out the unit.

// sample HVEM032 (antibody, human IgG4 S228P, kappa, V domains shown) VH: EVQLLESGGGLVQPGGSLRLSCAASGFTFSNYAIHWVRQAPGKGLEWVSTISSPGSTINYADSVKGRFTISRDNSKNTLYLQMNSLRAEDTAVYYCASGYLYPAMDVWGQGTLVTVSS VL: EIVLTQSPGTLSLSPGERATLSCRASRSVGKYLSWYQQKPGQAPRLLIYGASKLQSGIPDRFSGSGSGTDFTLTISRLEPEDFAVYYCQQYGSWPPFTFGQGTKVEIKR , its binding affinity (ELISA fit) was 16.9

For HVEM041 (antibody, human IgG4 S228P, kappa, V domains shown) VH: EVQLLESGGGLVQPGGSLRLSCAASGFTFSSYAMSWVRQAPGKGLEWVSEISQSGSSNYNPSLKSRFTISRDNSKNTLYLQMNSLRAEDTAVYYCATGRWRFDYWGQGTLVTVSS VL: EIVLTQSPGTLSLSPGERATLSCRASRSVGKYLAWYQQKPGQAPRLLIYGASTRATGIPDRFSGSGSGTDFTLTISRLEPEDFAVYYCQQYGSSPPVTFGQGTKVEIKR the binder record lists binding affinity (ELISA fit) as 20.1

So for HVEM001 (antibody, human IgG4 S228P, kappa, V domains shown) VH: EVQLLESGGGLVQPGGSLRLSCAASGFTFSNYAMHWVRQAPGKGLEWVSNINPSGGSTTYAQEFEDRFTISRDNSKNTLYLQMNSLRAEDTAVYYCATRSRQDSWGYFDIWGQGTLVTVSS VL: EIVLTQSPGTLSLSPGERATLSCRASRSISNYLAWYQQKPGQAPRLLIYGASTRATGIPDRFSGSGSGTDFTLTISRLEPEDFAVYYCQQYGSSPPLTFGQGTKVEIKR , the logged binding affinity (ELISA fit) turned out to be 22

Documented binding affinity (ELISA fit) of HVEM030 (antibody, human IgG4 S228P, kappa, V domains shown) VH: EVQLLESGGGLVQPGGSLRLSCAASGFTFSGYYWTWVRQAPGKGLEWVSTISASGDSTYYADSVKGRFTISRDNSKNTLYLQMNSLRAEDTAVYYCAHDRTFGYFDYWGQGTLVTVSS VL: EIVLTQSPGTLSLSPGERATLSCRASRSVGKYLAWYQQKPGQAPRLLIYAASSLQSGIPDRFSGSGSGTDFTLTISRLEPEDFAVYYCQQYGSSPPITFGQGTKVEIKR : 16.1

Record summary for HVEM039 (antibody, human IgG4 S228P, kappa, V domains shown) VH: EVQLLESGGGLVQPGGSLRLSCAASGFTFSSYGMNWVRQAPGKGLEWVSIINPSGDTTTYAQKFQGRFTISRDNSKNTLYLQMNSLRAEDTAVYYCARGRGAFDYWGQGTLVTVSS VL: EIVLTQSPGTLSLSPGERATLSCRASRSVGKYLAWYQQKPGQAPRLLIYGATSRATGIPDRFSGSGSGTDFTLTISRLEPEDFAVYYCQQYGSSPPVTFGQGTKVEIKR : reported binding affinity (ELISA fit) = 19.5
